The values you see were collected from paper PMC6017698.

# Target Or System: human serum BChE (Homo sapiens, UniProt P06276)
# Sequence (P06276 29-602): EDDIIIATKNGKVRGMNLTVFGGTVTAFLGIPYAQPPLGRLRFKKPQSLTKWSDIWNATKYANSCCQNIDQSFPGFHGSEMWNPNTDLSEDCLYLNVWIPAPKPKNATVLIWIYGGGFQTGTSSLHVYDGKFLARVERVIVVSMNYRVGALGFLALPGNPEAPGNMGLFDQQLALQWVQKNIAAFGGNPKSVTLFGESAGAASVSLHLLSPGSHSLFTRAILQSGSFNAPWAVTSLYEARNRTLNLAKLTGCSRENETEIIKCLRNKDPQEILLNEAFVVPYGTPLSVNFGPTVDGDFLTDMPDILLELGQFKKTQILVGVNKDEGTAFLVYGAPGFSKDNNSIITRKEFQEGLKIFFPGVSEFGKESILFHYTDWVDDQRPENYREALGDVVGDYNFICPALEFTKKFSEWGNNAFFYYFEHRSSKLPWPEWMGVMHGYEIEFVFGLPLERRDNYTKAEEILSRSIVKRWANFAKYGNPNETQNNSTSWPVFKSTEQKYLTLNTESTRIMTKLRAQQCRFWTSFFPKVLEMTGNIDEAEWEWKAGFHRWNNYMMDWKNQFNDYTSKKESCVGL
# Method: biochemical
# Details: mean ± SEM of at least three experiments, each in duplicate, read-out: hBChE IC50
Binary call on IC50 with cut-off 3000 nM: strictly below means satisfied, and equality or higher means not satisfied.

Past entries and their recorded results:
(Q) # strict comparison: is reported IC50 < 3000 nM? input = OCCc1cn(CCNc2c3c(nc4cc(Cl)ccc24)CCCC3)nn1
(A) not satisfied

(Q) # strict comparison: is reported IC50 < 3000 nM? input = OCCc1cn(CCNc2c3c(nc4ccccc24)CCCC3)nn1
(A) satisfied

(Q) # strict comparison: is reported IC50 < 3000 nM? input = COc1cc(CNC(=O)Cc2cn(CCNc3c4c(nc5cc(Cl)ccc35)CCCC4)nn2)ccc1O
(A) satisfied

(Q) # strict comparison: is reported IC50 < 3000 nM? input = COc1cc(CNC(=O)Cc2cn(CCNc3c4c(nc5ccccc35)CCCC4)nn2)ccc1O
(A) satisfied

(Q) # strict comparison: is reported IC50 < 3000 nM? input = C[n+]1c2c(c(N)c3ccc(Cl)cc31)CCCC2.[I-]
(A) not satisfied

Pending compound:
(Q) # strict comparison: is reported IC50 < 3000 nM? input = C[n+]1c2c(c(N)c3ccccc31)CCCC2.[I-]
(A) satisfied

###

# Target Or System: human recombinant AChE (Homo sapiens, UniProt P22303)
# Construct: purchased Sigma, Milan, Italy
# Sequence (P22303 32-614): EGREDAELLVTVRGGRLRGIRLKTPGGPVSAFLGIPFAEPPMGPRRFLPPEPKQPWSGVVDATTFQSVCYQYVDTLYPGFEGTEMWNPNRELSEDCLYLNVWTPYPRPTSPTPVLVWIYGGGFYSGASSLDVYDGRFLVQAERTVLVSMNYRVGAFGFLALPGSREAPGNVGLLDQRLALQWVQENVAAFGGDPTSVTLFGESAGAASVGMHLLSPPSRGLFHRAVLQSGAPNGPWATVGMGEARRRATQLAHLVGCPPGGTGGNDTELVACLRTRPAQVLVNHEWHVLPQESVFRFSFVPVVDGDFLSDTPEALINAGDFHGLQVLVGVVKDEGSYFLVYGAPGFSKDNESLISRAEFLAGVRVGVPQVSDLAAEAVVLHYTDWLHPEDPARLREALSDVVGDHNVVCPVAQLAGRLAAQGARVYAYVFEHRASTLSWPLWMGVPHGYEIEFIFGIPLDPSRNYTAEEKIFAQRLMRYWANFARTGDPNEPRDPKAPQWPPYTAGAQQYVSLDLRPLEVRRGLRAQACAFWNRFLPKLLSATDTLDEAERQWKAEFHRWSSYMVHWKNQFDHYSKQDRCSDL
# Method: biochemical
# Assay type: biochemical
# Details: human recombinant AChE; values given in nM (table footnotes, text); read-out: IC50 hAChE
Observable: IC50 (nM)
Give bare numbers, in nM.

(Q) Fill in the blank: the reported IC50 of COc1cc(CNC(=O)Cc2cn(CCNc3c4c(nc5cc(Cl)ccc35)CCCC4)nn2)ccc1O is ____.
(A) 7.18

###

# Target Or System: human recombinant AChE (Homo sapiens)
# Construct: purchased Sigma, Milan, Italy
# Method: biochemical
# Type: biochemical
# Details: human recombinant AChE; mean ± SEM of at least three experiments, each in duplicate; read-out: hAChE IC50
pIC50: −log10 of the molar value.
Please use y whenever pIC50 is not below 6, and n whenever it is.

Past entries and their recorded results:
(Q) pIC50 >= 6 for C[n+]1c2c(c(N)c3ccccc31)CCCC2.[I-] ?
(A) n

(Q) pIC50 >= 6 for OCCc1cn(CCNc2c3c(nc4cc(Cl)ccc24)CCCC3)nn1 ?
(A) y

(Q) pIC50 >= 6 for OCCc1cn(CCNc2c3c(nc4ccccc24)CCCC3)nn1 ?
(A) n

(Q) pIC50 >= 6 for C[n+]1c2c(c(N)c3ccc(Cl)cc31)CCCC2.[I-] ?
(A) n

(Q) pIC50 >= 6 for COc1cc(CNC(=O)Cc2cn(CCNc3c4c(nc5ccccc35)CCCC4)nn2)ccc1O ?
(A) y

Pending compound:
(Q) pIC50 >= 6 for COc1cc(CNC(=O)Cc2cn(CCNc3c4c(nc5cc(Cl)ccc35)CCCC4)nn2)ccc1O ?
(A) y

###

# Target Or System: human serum BChE (Homo sapiens, UniProt P06276)
# Method: biochemical
# Details: values given in nM (table footnotes), read-out: IC50 hBChE
Observable: IC50 (nM)
One number for each entry, in nM.

(Q) Fill in the blank: the reported IC50 of COc1cc(CNC(=O)Cc2cn(CCNc3c4c(nc5ccccc35)CCCC4)nn2)ccc1O [Compound 15] is ____.
(A) 54.8
